B1: HDV Ribozyme (parent)
chain: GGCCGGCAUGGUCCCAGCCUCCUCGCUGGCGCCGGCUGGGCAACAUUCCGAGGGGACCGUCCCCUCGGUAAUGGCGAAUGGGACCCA

- Variants of: B1
- assay.notes: self-cleavage, relative activity (ratio to wild type); higher = more cleavage; co-transcriptional
Parameter: self-cleavage. Scope: all listed entries.
reported.property: self-cleavage

mutation.label	assay.value
C18G C48G	0.175
U37G A43U	0.208
A56C A78U	0.499
G28A A78U	0.0308
C3A A77C	0.171
G1A A16U	0
C61U U65G	0.864
C32G A87G	0.0665
G53U U79C	0.535
C13A U46C	0.203
G38C U79A	0.151
C49U C84U	0.676
G28U G29C	0.106
G81C C86A	0.554
U69C U79G	1.16
G59C A71C	0.677
U20C G52A	0.175
C44A A77U	0.203
G53U C57G	1.1
C30U U46G	0.231
G25U G68C	0.0791
C64G A77G	0.434
